System: Leishmania infantum MHOM/MA(BE)/67/ITMAP263 intracellular amastigotes
testSettings: from L. infantum intracellular amastigote IC50
Answer each item with its documented L. Inf. pIC50.

In: GET /values?readout=L. Inf. pIC50&item= `CCCCOc1cc(C)c(Cl)cc1S(=O)(=O)NCc1cccs1`
Out: 6.1

In: And what about the compound `CCCCCOc1cc(C)c(C)cc1S(=O)(=O)NC1CC(C)(C)NC(C)(C)C1` ?
Out: 5.32

In: And what about the compound `CCCCCOc1cc(C)c(C)cc1S(=O)(=O)NC1CCCCC1` ?
Out: 5.98

In: And what about the compound `CCN(Cc1ccccc1)S(=O)(=O)c1cc(OC)c(C)cc1OC` ?
Out: 5.97

In: And what about the compound `CCCOc1cc(C)c(C)cc1S(=O)(=O)NC1CCCCC1` ?
Out: 5.27

In: And what about the compound `CCCCOc1cc(C)c(C(C)C)cc1S(=O)(=O)NC1CCCCC1` ?
Out: 6

In: And what about the compound `CCOc1cc(S(=O)(=O)N(Cc2ccccc2)Cc2ccccc2)c(OCC)cc1C` ?
Out: 6.06

In: And what about the compound `CCCCCOc1cc(C)c(Cl)cc1S(=O)(=O)NCc1ccco1` ?
Out: 5.97

In: And what about the compound CC[C@H](Cc1ccccc1)[S+]([O-])c1ccccc1OC (stereo partly shown) ?
Out: 4.45

In: And what about the compound `CCCCOc1cc(C)c(Cl)cc1S(=O)(=O)NCc1cccnc1` ?
Out: 4.78
